Provenance of the data: patent US4921941A

Recorded Plasma concentration of flutamide active metabolite, 2 Hours for the following compounds
- TEST_DETAILS: Plasma concentrations of flutamide active metabolite in rats after single oral doses of various esters (0-4 hours), gas-liquid chromatography
- Assay type: in vivo, male Sprague Dawley rats
- RUN_PARAMETERS: rat, single oral dose, 2 hours; average of 2 animals, normalized to a 5 mg/kg dose of flutamide active metabolite
Number only, in ng/mL; omit the unit.

Below, 4 compounds whose answers are already recorded.
>>> test_result("CN(CC(=O)OC(C)(C)C(=O)Nc1ccc([N+](=O)[O-])c(C(F)(F)F)c1)C(=O)CNC(=O)[C@@H](N)CCCCN [lys--gly--sar]")
1103
>>> test_result("C[C@H](N)C(=O)NCC(=O)N(C)CC(=O)OC(C)(C)C(=O)Nc1ccc([N+](=O)[O-])c(C(F)(F)F)c1 [ala--gly--sar]")
1952
>>> test_result("CNCC(=O)OC(C)(C)C(=O)Nc1ccc([N+](=O)[O-])c(C(F)(F)F)c1 [sar]")
1345
>>> test_result("CC(C)(OC(=O)[C@@H]1CCCN1C(=O)CNC(=O)[C@@H](N)CCCCN)C(=O)Nc1ccc([N+](=O)[O-])c(C(F)(F)F)c1.Cl.Cl [lys--gly--pro]")
2277

Proceeding to the next compound to report its Plasma concentration of flutamide active metabolite, 2 Hours.
IN: Answer with the recorded Plasma concentration of flutamide active metabolite, 2 Hours of CC(C)C(=O)Nc1ccc([N+](=O)[O-])c(C(F)(F)F)c1 [H (flutamide), reference compound] only.
OUT: 715

---

- TEST_DETAILS: Plasma concentrations of flutamide active metabolite in rats after single oral doses of various esters (0-4 hours), gas-liquid chromatography
- Format: in vivo, male Sprague Dawley rats
- RUN_PARAMETERS: rat, single oral dose, 4 hours; average of 2 animals, normalized to a 5 mg/kg dose of flutamide active metabolite
REPORTED_ENDPOINT: Plasma concentration of flutamide active metabolite, 4 Hours (ng/mL)
Number in ng/mL, nothing else.

>>> test_result("CC(C)C(=O)Nc1ccc([N+](=O)[O-])c(C(F)(F)F)c1 [H (flutamide), reference compound]")
974

IN: Provide Plasma concentration of flutamide active metabolite, 4 Hours value for the following molecule: CNCC(=O)OC(C)(C)C(=O)Nc1ccc([N+](=O)[O-])c(C(F)(F)F)c1 [sar]
OUT: 958

IN: Using known records, supply Plasma concentration of flutamide active metabolite, 4 Hours for CC(C)(OC(=O)[C@@H]1CCCN1C(=O)CNC(=O)[C@@H](N)CCCCN)C(=O)Nc1ccc([N+](=O)[O-])c(C(F)(F)F)c1.Cl.Cl [lys--gly--pro]
OUT: 1847

IN: Answer with reported Plasma concentration of flutamide active metabolite, 4 Hours of CN(CC(=O)OC(C)(C)C(=O)Nc1ccc([N+](=O)[O-])c(C(F)(F)F)c1)C(=O)CNC(=O)[C@@H](N)CCCCN [lys--gly--sar]
OUT: 1248

IN: Give the reported value of Plasma concentration of flutamide active metabolite, 4 Hours for this record: C[C@H](N)C(=O)NCC(=O)N(C)CC(=O)OC(C)(C)C(=O)Nc1ccc([N+](=O)[O-])c(C(F)(F)F)c1 [ala--gly--sar]
OUT: 1115

---

- TEST_DETAILS: Plasma concentrations of flutamide active metabolite for up to 16 hours after administration of esters or flutamide
- Format: in vivo, rats
- RUN_PARAMETERS: rat, 0-16 hr; normalized to a 5 mg/kg dose of flutamide active metabolite
REPORTED_ENDPOINT: 0-16 hr (area under the plasma level curve of flutamide active metabolite) (ng·h/mL)
# value in ng·h/mL; strip the unit string

>>> test_result("CC(C)C(=O)Nc1ccc([N+](=O)[O-])c(C(F)(F)F)c1 [H (flutamide), reference compound]")
8270
>>> test_result("C[C@H](N)C(=O)NCC(=O)N(C)CC(=O)OC(C)(C)C(=O)Nc1ccc([N+](=O)[O-])c(C(F)(F)F)c1")
17200

IN: Item CC(C)(OC(=O)[C@@H]1CCCN1C(=O)CNC(=O)[C@@H](N)CCCCN)C(=O)Nc1ccc([N+](=O)[O-])c(C(F)(F)F)c1.Cl.Cl : provide 0-16 hr (area under the plasma level curve of flutamide active metabolite)
OUT: 15600
